Attribution: patent US9187413B2

# TGT: FAAH (Mus musculus (Mouse), UniProt O08914)
# Sequence (O08914 whole entry): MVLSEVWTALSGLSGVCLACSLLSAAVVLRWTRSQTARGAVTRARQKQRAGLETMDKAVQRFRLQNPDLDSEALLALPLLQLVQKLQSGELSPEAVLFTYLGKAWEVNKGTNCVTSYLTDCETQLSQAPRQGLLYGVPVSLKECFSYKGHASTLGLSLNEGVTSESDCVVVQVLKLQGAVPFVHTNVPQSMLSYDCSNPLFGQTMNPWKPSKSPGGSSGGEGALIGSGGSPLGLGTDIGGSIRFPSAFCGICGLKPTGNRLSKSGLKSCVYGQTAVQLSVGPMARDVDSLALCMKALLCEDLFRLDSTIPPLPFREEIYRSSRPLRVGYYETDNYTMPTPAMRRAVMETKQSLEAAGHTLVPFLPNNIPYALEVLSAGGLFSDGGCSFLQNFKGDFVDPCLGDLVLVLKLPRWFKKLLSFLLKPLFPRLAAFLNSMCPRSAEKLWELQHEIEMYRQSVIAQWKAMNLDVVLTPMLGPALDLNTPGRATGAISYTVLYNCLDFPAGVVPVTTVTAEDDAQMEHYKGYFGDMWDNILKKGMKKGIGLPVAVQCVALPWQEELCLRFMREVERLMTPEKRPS
# EXPERIMENTAL_DETAILS: FAAH inhibition ex vivo after systemic administration in mice
# EXPERIMENTAL_SETUP: mouse, ip; ex vivo 1 h after a single injection in mice (1 mg-kg^-1, i.p.), brain; read-out: FAAH Inhibition in brain (%)

COMPOUND | inhibition at 1 mg/kg, %
NC(=O)c1cccc(-c2cc(OC(=O)NC3CCCCC3)ccc2F)c1 | 89.7
NC(=O)c1cccc(-c2cc(OC(=O)NC3CCCCC3)ccc2O)c1 | -3
NC(=O)c1cccc(-c2cc(OC(=O)NC3CCCCC3)ccc2N)c1 | 23.2
Cc1ccc(OC(=O)NC2CCCCC2)cc1-c1cccc(C(N)=O)c1 | 91.9
NC(=O)c1cccc(-c2cccc(OC(=O)NC3CCCCC3)c2)c1 [Compound 1a, reference compound] | 96.2
